Experiment: inhibitors of TNFa-induced NFkB p65 translocation, primary screen, imaging, HUVEC, MLSMR starter and 10KST1 sets (AID 438);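 note: compound added about 3h40 before a 20 min TNFalpha stimulation; signal is the nuclear over cytoplasmic p65 intensity ratio per well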
Settings: HUVEC TNFa-induced p65 nuclear translocation; at 2 µM, stronger effect = higher value, 0% TNFa-plus-vehicle, 100% no-TNFa wells
Hi there, I'd appreciate the recorded inhibition for every entry that follows.
Please give a number only; it is taken to be in %.

Q: Looking for the measured inhibition of `CC1(C)Cc2c(c(N3CCCCC3)[nH]c(=S)c2C#N)CS1` , can you help?
Result: -7.8

Q: Which inhibition value is on record for `CCCC(=O)N(c1ccc2oc(=O)sc2c1)S(=O)(=O)c1ccccc1` ?
Result: 3.5

Q: // returns reported inhibition for input Cc1ccc(-c2nc(CS(=O)CC(=O)NCCN(CC(C)C)CC(C)C)c(C)o2)cc1 (stereo not given)
Result: -7.2

Q: Give the measured inhibition of `C=C(C)CSc1nnc2n(C)c(=O)c3c4c(sc3n12)CCC4` .
Result: 8.5

Q: Quick one: inhibition for `c1ccc(-c2nn3c(Cn4nnc5ccccc54)nnc3s2)nc1` ?
Result: 2.1

Q: What value of measured inhibition is listed for Cc1cc(C)n(-c2nc(C)nc3sc4c(c23)CCC(C)C4)n1 (stereo not given) ?
Result: -8.4

Q: Entry CCC1CCCCN1CCNS(=O)(=O)c1ccc2c(c1)oc(=O)n2C (stereo not given) has what inhibition?
Result: 1.8

Q: Any idea what inhibition was measured for `COCCn1c(=N)c(C(=O)NCCc2ccccc2)cc2c(=O)n3cccc(C)c3nc21` ?
Result: 4.3

Q: Consider the compound `COC(=O)c1[nH]c2ccc(Cl)cc2c1NC(=O)C1CC1` and give its measured inhibition.
Result: -0.3

Q: // returns reported inhibition for input `N#Cc1ccccc1Cn1c(=O)n(Cc2ccc(C(=O)NCc3ccco3)cc2)c(=O)c2sccc21`
Result: -0.6

* * *

Assay: DUSP6 inhibitors restoring Erk phosphorylation by chemical complementation, primary imaging in DUSP6-transfected HeLa (AID 609)
Details: HeLa MKP-3 transfected, phospho-Erk imaging KS statistic; measured here: cell density z-score; at 10 µM; cells stimulated with TPA for 15 min
Property Name: z-score
// return just the number, without any unit appended

Q: Given the compound `CCCCOC(=O)c1ccc(NC(=O)CSc2nncn2C)cc1` , what is its reported z-score?
Result: -0.268

Q: Requested field: z-score. Item: `CC(=O)Oc1ccc2c(C)cc(=O)[nH]c2c1`
Result: -0.72

Q: Entry COc1ccc(CCn2c(C)cc3c(c2=O)C(c2ccc4c(c2)OCO4)C(C#N)=C(N)O3)cc1OC (stereo not drawn) : reported z-score = ?
Result: 1.12

Q: Fill in: z-score of `Clc1ccccc1CN(Cc1ccccc1)c1ncnc2nc[nH]c12` is ___
Result: -3.05

Q: Please report the recorded z-score for `Cn1c(=O)c2c(nc(NCc3ccc4c(c3)OCO4)n2Cc2ccccc2Cl)n(C)c1=O` .
Result: 0.0435

Q: Query (compound): O=C1C(=O)N(Cc2cccnc2)C(c2ccccn2)/C1=C(/O)c1ccc(F)cc1 (stereo not drawn) ; field requested: z-score
Result: 1.24

Q: Reported z-score, compound `CCCOc1ccccc1C(=O)NCCCC(=O)O` : ____
Result: 0.264

Q: So what's the measured z-score for this one? `CCCCc1nc(N2CCOCC2)c(C#N)c2c1COC(C)(C)C2`
Result: 1.13

Q: # query: z-score of entry `Nc1nnnn1N=C1CCCCC1`
Result: 0.907

Q: Find the recorded z-score belonging to `CCN(CC)C(=O)C1CCN(c2ncnc3c2cnn3-c2ccc(C)cc2C)CC1` and report it.
Result: 1.38

Q: Can you share its z-score? I mean this compound: `CCc1nc(N2CCN(C(=O)c3ccccc3)CC2)c(C#N)c2c1COC(C)(C)C2`
Result: -0.584

Q: Consider the compound CCN(CC)CCN1C(=O)C(=O)/C(=C(/O)c2c(C)[nH]c(C(=O)OC)c2C)C1c1ccc(OC)cc1 (stereo not drawn) and give its measured z-score.
Result: -0.146

Q: Entry under review: `CC(C)Cc1[nH]c(=O)c(C#N)c2c1COC(C)(C)C2` . Reported z-score?
Result: 0.028

Q: # get_value(readout='z-score', item= `CC1(C)Cc2c(c(-c3ccco3)[nH]c(=O)c2C#N)CS1` )
Result: 0.203

Q: Returns the measured z-score for the input compound. Input: `C[N+]1(CCNC(=O)/C=N/O)CCCCC1`
Result: -1.04

Q: Reported z-score for COc1ccc(C2C=C(c3ccc(C)cc3)Nc3ncnn32)cc1 (stereo not drawn) : what is it?
Result: -1.85

Q: Find the recorded z-score belonging to `COc1ccc(-c2nc3c(Br)c(N)c(Br)cc3o2)cc1` and report it.
Result: 0.844

Q: Entry O=C(O)C(O)c1ccco1 (stereo not drawn) : reported z-score = ?
Result: 0.761

Q: Entry `CC(C)OCCCNc1ncnc2c1cnn2-c1ccccc1` : reported z-score = ?
Result: 0.477

Q: Reported z-score for CCCCCCOc1ccc(N2C(=O)CC(N3CCN(C(=O)c4ccco4)CC3)C2=O)cc1 (stereo not drawn) : what is it?
Result: 0.106

Q: Which z-score value is on record for `Cn1c(=O)c2c(nc(NCCCO)n2Cc2cccc(C(F)(F)F)c2)n(C)c1=O` ?
Result: -1.68

Q: Param item = `Cc1cccn2c(=O)c3cc(C(=O)NCc4cccnc4)c(=N)n(C)c3nc12` ; retrieve measured z-score.
Result: -0.252

Q: Please look up its z-score: `C/C(=N/n1cnnc1)c1cccnc1`
Result: 0.514
